Biological target: CDK4/cyclin D3 (Homo sapiens)
Construct: made in house; host or cells: insect cells (baculovirus co-infection)
Test: Inhibition of CDK4/Cyclin D retinoblastoma kinase activity
Type: biochemical
Conditions: test compound at 0.1 μM; read-out: % Inhib CDK4/D @ 0.1 μM
Procedure: Cyclin-dependent kinase activity was measured by quantifying the enzyme-catalyzed, time-dependent incorporation of radioactive phosphate from [^32P]ATP or [^33P]ATP into a protein substrate. […] The phosphorylated substrate was then captured on a nitrocellulose or phosphocellulose membrane using a 96-well filtration manifold, and unincorporated radioactivity was removed by repeated washing with 0.85% phosphoric acid. Radioactivity was quantified by exposing the dried membranes to a phosphorimager. […]
PROPERTY_NAME: inhibition at 0.1 µM (%)

Answered cases to consult:
- COMPOUND: "CCOCCSc1ccc(Nc2nc(N)c(C(=O)c3c(Cl)cccc3Cl)s2)cc1"
  OUTPUT_UNIT: "%"
  REPORTED_MEASUREMENT: 21
- COMPOUND: "CC(C)CC[S+]([O-])c1ccc(Nc2nc(N)c(C(=O)c3c(Cl)cccc3Cl)s2)cc1 (centres unmarked)"
  OUTPUT_UNIT: "%"
  REPORTED_MEASUREMENT: 35
- COMPOUND: "CC(C)CCC[S+]([O-])c1cccc(Nc2nc(N)c(C(=O)c3c(Cl)cccc3Cl)s2)c1 (centres unmarked)"
  OUTPUT_UNIT: "%"
  REPORTED_MEASUREMENT: 21
- COMPOUND: "Nc1nc(Nc2ccc(S(=O)(=O)CCO)cc2)sc1C(=O)c1c(Cl)cccc1Cl"
  OUTPUT_UNIT: "%"
  REPORTED_MEASUREMENT: 31
- COMPOUND: "CN(C)CCSc1ccc(Nc2nc(N)c(C(=O)c3c(Cl)cccc3Cl)s2)cc1"
  OUTPUT_UNIT: "%"
  REPORTED_MEASUREMENT: 14

(A) CC(C)=CC[S+]([O-])c1ccc(Nc2nc(N)c(C(=O)c3c(Cl)cccc3Cl)s2)cc1 (centres unmarked)
(B) COc1cccc(C[S+]([O-])c2cccc(Nc3nc(N)c(C(=O)c4c(Cl)cccc4Cl)s3)c2)c1 (centres unmarked)
(C) Nc1nc(Nc2cccc(SCCCO)c2)sc1C(=O)c1c(Cl)cccc1Cl
(D) CCCSc1cccc(Nc2nc(N)c(C(=O)c3c(Cl)cccc3Cl)s2)c1
(E) CC(C)OC(=O)CSc1ccc(Nc2nc(N)c(C(=O)c3c(Cl)cccc3Cl)s2)cc1
Inquiry: Please order the records by their reported inhibition at 0.1 µM, lowest number first. State the ranking by listing the labels in the requested order.
Reply text: D, A, B, E, C

(I) CC(C)CCS(=O)(=O)c1ccc(Nc2nc(N)c(C(=O)c3c(Cl)cccc3Cl)s2)cc1
(II) NC(=O)CS(=O)(=O)c1ccc(Nc2nc(N)c(C(=O)c3c(Cl)cccc3Cl)s2)cc1
(III) COCCSc1ccc(Nc2nc(N)c(C(=O)c3c(Cl)cccc3Cl)s2)cc1
Inquiry: Sort by inhibition at 0.1 µM, descending. State the ranking by listing the labels in the requested order.
Reply text: III, II, I
(III: 41%, II: 28%, I: 17%)

====

target: CDK4/cyclin D3 (Homo sapiens, UniProt P11802); construct: made in house; host or cells: insect cells (baculovirus co-infection); experiment: Inhibition of CDK4/Cyclin D retinoblastoma kinase activity; assay type: biochemical; details: test compound at 0.03 (unit cell empty, head line shifted; μM); read-out: % Inhib CDK4/D @ 0.03
Sequence (P11802 whole entry): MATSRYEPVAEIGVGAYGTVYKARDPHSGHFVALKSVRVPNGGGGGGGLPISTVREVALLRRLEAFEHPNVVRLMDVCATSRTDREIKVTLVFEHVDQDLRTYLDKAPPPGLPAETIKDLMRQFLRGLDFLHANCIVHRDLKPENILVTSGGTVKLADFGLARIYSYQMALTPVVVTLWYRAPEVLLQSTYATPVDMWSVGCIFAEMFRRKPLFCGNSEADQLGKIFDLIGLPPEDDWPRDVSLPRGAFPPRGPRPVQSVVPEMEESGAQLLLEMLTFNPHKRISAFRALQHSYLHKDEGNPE
Sequence (P30281 1-264 partner limits assumed): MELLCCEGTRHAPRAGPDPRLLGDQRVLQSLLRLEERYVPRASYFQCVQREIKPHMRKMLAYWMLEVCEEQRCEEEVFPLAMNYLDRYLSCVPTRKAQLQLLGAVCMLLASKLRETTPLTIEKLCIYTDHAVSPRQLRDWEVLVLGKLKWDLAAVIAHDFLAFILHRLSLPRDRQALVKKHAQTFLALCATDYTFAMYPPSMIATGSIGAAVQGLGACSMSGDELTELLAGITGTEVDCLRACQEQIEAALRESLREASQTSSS
PROPERTY_NAME: inhibition at 0.03 µM (%)

(1) CN1CCCC(CSc2cccc(Nc3nc(N)c(C(=O)c4c(Cl)cccc4Cl)s3)c2)C1 (centres unmarked)
(2) Nc1nc(Nc2cccc(SCC3CO3)c2)sc1C(=O)c1c(Cl)cccc1Cl (centres unmarked)
Inquiry: Higher inhibition at 0.03 µM between 1 and 2 ? Give the chosen item's label as your response.
Reply text: 2

(a) Nc1nc(Nc2ccc(SCCN3CCCCC3)cc2)sc1C(=O)c1c(Cl)cccc1Cl
(b) CCOC(=O)CC[S+]([O-])c1ccc(Nc2nc(N)c(C(=O)c3c(Cl)cccc3Cl)s2)cc1 (centres unmarked)
Inquiry: Please indicate which item has the smaller measured inhibition at 0.03 µM: a versus b Give the chosen item's label as your response.
Reply text: b
(b: 2.1%, a: 4.2%)

(P) CCC[S+]([O-])c1cccc(Nc2nc(N)c(C(=O)c3c(Cl)cccc3Cl)s2)c1 (centres unmarked)
(Q) Nc1nc(Nc2ccc(SCCN3CCCC3)cc2)sc1C(=O)c1c(Cl)cccc1Cl
Inquiry: Higher inhibition at 0.03 µM between P and Q ? Give the chosen item's label as your response.
Reply text: Q

(A) Nc1nc(Nc2ccc([S+]([O-])Cc3ncon3)cc2)sc1C(=O)c1c(Cl)cccc1Cl (centres unmarked)
(B) CC(C)OC(=O)CCSc1ccc(Nc2nc(N)c(C(=O)c3c(Cl)cccc3Cl)s2)cc1
Inquiry: Please indicate which item has the smaller measured inhibition at 0.03 µM: A versus B Give the chosen item's label as your response.
Reply text: A
